studySystem: T1, human A-beta(1-40) peptide, monomeric (BAM) (human, biotin at the C-terminus in capture ELISA, SPR and TR-FRET; not biotinylated where coated directly (Example 7))
T1 construct: synthetic peptide (Anaspec), TFA/HFIP treated to give monomer; also called monomeric A-beta
assayExplanation: ABII050 TR-FRET competition assay
observable: pIC50
Keep it numeric: pIC50 is minus log10 of the concentration in mol/L.

pIC50 for ABII323-PEG40 (designed binder, PEG40 on the Cys at position 15 of the 35GS linker, 059-35GSC-035) VQLLESGGGLVQPGGSLRLSCAASGRTFNNYNMGWFRQAPGKGREFVAAVSRSGVSTYYADSVKGRFTISRDNSKNTVYLQMNSLRPEDTAVYYCAAAYRGTAINVRRSYSSWGQGTLVTVSSGGGGSGGGGSGGGGCGGGGSGGGGSGGGGSGGGGSEVQLLESGGGLVQPGGSLRLSCVHSGPTFRTDTMGWFRQAPGKGREFVAAVTWNSGRINYADSVKGRFTISRDNSKNTAYLQMNSLRPEDTAVYYCAAHRFVVGGNRVEDWRYWGQGTLVTVSS ?
9.70

pIC50 for ABII059-27GS-ABII035-MSA (designed binder, built from the printed name; not shown: mouse serum albumin) EVQLLESGGGLVQPGGSLRLSCAASGRTFNNYNMGWFRQAPGKGREFVAAVSRSGVSTYYADSVKGRFTISRDNSKNTVYLQMNSLRPEDTAVYYCAAAYRGTAINVRRSYSSWGQGTLVTVSSGGGSGGGGSGGGGSGGGGSGGGGSGGGEVQLLESGGGLVQPGGSLRLSCVHSGPTFRTDTMGWFRQAPGKGREFVAAVTWNSGRINYADSVKGRFTISRDNSKNTAYLQMNSLRPEDTAVYYCAAHRFVVGGNRVEDWRYWGQGTLVTVSS ?
9.74

pIC50 for monoclonal antibody m266 (IgG) (antibody, V domains shown, also called IgG m266; IgG266) VH: EVKLVESGGGLVQPGGSLKLSCAVSGFTFSRYSMSWVRQTPEKRLELVAQINSVGNSTYYPDTVKGRFTISRDNAEYTLSLQMSGLRSDDTATYYCASGDYWGQGTTLTVSS VL: DVVMTQTPLSLPVSLGDQASISCRSSQSLIYSDGNAYLHWFLQKPGQSPKLLIYKVSNRFSGVPDRFSGSGSGTDFTLKISRVETEDLGVYFCSQSTHVPWTFGGGTKLEIK ?
9.28

pIC50 for ABII059-27GS-ABII035-MSA_D3 (designed binder, built from the printed name; not shown: domain III of mouse serum albumin) EVQLLESGGGLVQPGGSLRLSCAASGRTFNNYNMGWFRQAPGKGREFVAAVSRSGVSTYYADSVKGRFTISRDNSKNTVYLQMNSLRPEDTAVYYCAAAYRGTAINVRRSYSSWGQGTLVTVSSGGGSGGGGSGGGGSGGGGSGGGGSGGGEVQLLESGGGLVQPGGSLRLSCVHSGPTFRTDTMGWFRQAPGKGREFVAAVTWNSGRINYADSVKGRFTISRDNSKNTAYLQMNSLRPEDTAVYYCAAHRFVVGGNRVEDWRYWGQGTLVTVSS ?
9.92

pIC50 for ABII315-PEG40 (designed binder, PEG40 on the Cys at position 5 of the 9GS linker, 059-9GSC-035; purified as His6-tagged construct before PEGylation) EVQLLESGGGLVQPGGSLRLSCAASGRTFNNYNMGWFRQAPGKGREFVAAVSRSGVSTYYADSVKGRFTISRDNSKNTVYLQMNSLRPEDTAVYYCAAAYRGTAINVRRSYSSWGQGTLVTVSSGGGGCGGGSEVQLLESGGGLVQPGGSLRLSCVHSGPTFRTDTMGWFRQAPGKGREFVAAVTWNSGRINYADSVKGRFTISRDNSKNTAYLQMNSLRPEDTAVYYCAAHRFVVGGNRVEDWRYWGQGTLVTVSS ?
9.51
